Test: In vivo toxicological study in rats: haematology
Set-up: species or system rats of the Wistar strain
Conditions: male, 300 mg/kg oral daily 7 d
Please provide measured MONO for the entries that follow.

A selection of reference data follows.
molecule | MONO
N#Cc1c(NC(=O)c2cccc3ccccc23)sc2c1CCN(CC(=O)Nc1cccc(Br)c1)C2 [PKL-B171] | 0.20 10^9/l
N#Cc1c(NC(=O)c2cccc3ccccc23)sc2c1CCN(C(=O)Nc1ccccc1OC(F)(F)F)C2 [PKL-A159] | 0.10 10^9/l
COc1ccc(C(=O)Nc2sc3c(c2C#N)CCCCC3)cc1OC [PKL-A135] | 0.20 10^9/l

We now examine a further molecule.
// query Quick one: MONO for COc1ccccc1NC(=O)N1CCc2c(sc(NC(=O)c3cccc4ccccc34)c2C#N)C1 [PKL-A152] ?
// result 0.17 10^9/l
